# target: HLA-DRB1*0801 (Homo sapiens, UniProt P01903+P01911, A100R/A103L/A169T/D86S/F76Y/H45Y/I96F/K41T/L162R/M171V/P40S/Q125H/Q178H/Q39Y/Q99D/R218S/R42G/S66Y/V115G/W38E)
# protocol: biochemical
# Assay type: binding
# experimental_context: binding inhibition assay; NB = non-binder (no dose-dependent inhibition); read-out: DRB1*0801 IC50
# Excerpt: The binding assay conducted by EpiVax yields an indirect measure of peptide-MHC affinity as it utilizes a competition assay format per the methodology described in Steere et al. ([35]). […] Time-resolved fluorescence measurement of the bound labeled reference peptide complex present in each mixture is detected with a europium-linked probe via fluorescent spectrophotometry using a SpectraMax M5 system. […]
Where a SMILES comes first, the peptide text is derived from it.
assay_metric: pIC50
Keep in mind that pIC50 stands for -log10 of concentration in molar terms.

Q: Can you look up the measured pIC50 of CC[C@H](C)[C@H](NC(=O)[C@H](CCC(=O)O)NC(=O)[C@@H](NC(=O)[C@H](CCCCN)NC(=O)[C@H](CCCCN)NC(C)=O)C(C)C)C(=O)N[C@@H](Cc1ccccc1)C(=O)N[C@@H](CCCNC(=N)N)C(=O)N[C@@H](CO)C(=O)N[C@@H](CCCNC(=N)N)C(=O)N[C@@H](Cc1ccccc1)C(=O)N[C@@H](CO)C(=O)N[C@@H](CO)C(=O)N[C@@H](CCCCN)C(=O)N[C@@H](CC(C)C)C(=O)N[C@@H](CCC(N)=O)C(=O)N[C@@H](CS)C(=O)N[C@@H](CCC(N)=O)C(N)=O [RIPR_011] (Ac-KKVEIFRSRFSSKLQCQ-NH2) for me?
Ans: 4.18

----------
Each record here notes measured pIC50.
# target: HLA-DRB1*0401 (Homo sapiens, UniProt P01903+P01911, A100K/A169T/F76Y/I96L/K127E/L162R/M171V/N62H/P40V/Q125Y/R42H/S133A/S149N/S66Y/V115G/V209L/W38E)
# Construct: purchased
# protocol: biochemical
# Format: binding
# experimental_context: binding inhibition assay; NB = non-binder (no dose-dependent inhibition); read-out: DRB1*0401 IC50
Where a SMILES comes first, the peptide text is derived from it.
For clarity, pIC50 is expressed as the negative log10 of concentration in mol/L.

# annotated cases, reported pIC50 shown
| compound | result_number |
| --- | --- |
| CC[C@H](C)[C@H](NC(=O)[C@H](Cc1ccc(O)cc1)NC(=O)[C@@H](NC(=O)[C@H](Cc1ccc(O)cc1)NC(=O)[C@H](CO)NC(=O)CNC(=O)[C@H](CCSC)NC(=O)[C@H](CCCCN)NC(=O)[C@H](CCCCN)NC(=O)[C@H](CC(N)=O)NC(=O)[C@H](CC(C)C)NC(=O)[C@H](CC(N)=O)NC(=O)[C@@H](NC(=O)[C@H](CC(C)C)NC(=O)[C@H](CC(C)C)NC(=O)[C@H](CC(C)C)NC(=O)[C@H](CCC(=O)O)NC(=O)[C@@H](N)CO)[C@@H](C)O)[C@@H](C)CC)C(N)=O [RH5_010B] (H-SELLLTNLNKKMGSYIYI-NH2) | 4.08 |
| CC[C@H](C)[C@H](NC(=O)[C@H](CO)NC(=O)[C@@H](NC(=O)[C@@H]1CCCN1C(=O)[C@@H](NC(=O)[C@H](CC(=O)O)NC(C)=O)C(C)C)[C@@H](C)CC)C(=O)N[C@H](C(=O)N[C@@H](CCCNC(=N)N)C(=O)N[C@@H](CC(N)=O)C(=O)N[C@@H](CC(N)=O)C(=O)N[C@@H](CCC(=O)O)C(=O)N[C@@H](CCC(N)=O)C(=O)N[C@H](C(=O)N[C@@H](CO)C(=O)N[C@@H](CCC(N)=O)C(=O)N[C@@H](CCC(=O)O)C(=O)N[C@@H](C)C(N)=O)[C@@H](C)O)[C@@H](C)CC [EBA175_014] (Ac-DVPISIIRNNEQTSQEA-NH2) | 5.42 |

Q: Entry CSCC[C@H](NC(=O)[C@@H](NC(=O)[C@H](Cc1c[nH]cn1)NC(=O)[C@H](Cc1ccccc1)NC(=O)CNC(=O)[C@H](Cc1c[nH]cn1)NC(=O)[C@H](CCCCN)NC(C)=O)[C@@H](C)O)C(=O)N[C@@H](CC(N)=O)C(=O)N[C@@H](CC(N)=O)C(=O)N[C@@H](CC(C)C)C(=O)N[C@@H](Cc1c[nH]cn1)C(=O)NCC(=O)N[C@@H](CC(=O)O)C(=O)NCC(=O)N[C@H](C(=O)N[C@@H](CO)C(=O)N[C@@H](CCC(=O)O)C(N)=O)C(C)C [EBA175_016] (Ac-KHGFHTMNNLHGDGVSE-NH2) : reported pIC50 = ?
Ans: 6.34

Q: Item CSCC[C@H](N)C(=O)N[C@@H](CCCNC(=N)N)C(=O)N[C@@H](CCCCN)C(=O)N[C@@H](CC(C)C)C(=O)N[C@@H](Cc1ccc(O)cc1)C(=O)N[C@@H](CS)C(=O)N[C@H](C(=O)N[C@@H](CC(C)C)C(=O)N[C@@H](CC(C)C)C(=O)N[C@@H](CC(C)C)C(=O)N[C@@H](CO)C(=O)N[C@@H](C)C(=O)N[C@@H](Cc1ccccc1)C(=O)N[C@@H](CCC(=O)O)C(=O)N[C@@H](Cc1ccccc1)C(=O)N[C@H](C(=O)N[C@@H](Cc1ccc(O)cc1)C(N)=O)[C@@H](C)O)C(C)C [AMA1_001] (H-MRKLYCVLLLSAFEFTY-NH2) has what recorded pIC50?
Ans: 5.83

Q: I am curious: what pIC50 value has been reported for CC[C@H](C)[C@H](NC(=O)[C@H](CC(C)C)NC(=O)[C@H](Cc1c[nH]cn1)NC(=O)[C@H](Cc1ccccc1)NC(=O)[C@H](CCCCN)NC(=O)[C@H](CO)NC(=O)[C@H](CCCCN)NC(C)=O)C(=O)N[C@@H](CO)C(=O)N[C@@H](CCCNC(=N)N)C(=O)N[C@@H](CC(N)=O)C(=O)N[C@@H](CO)C(=O)N[C@@H](CCCNC(=N)N)C(=O)N[C@H](C(=O)N[C@@H](CC(N)=O)C(=O)N[C@@H](CCC(N)=O)C(=O)N[C@@H](Cc1ccc(O)cc1)C(N)=O)[C@@H](C)O [RIPR_009] (Ac-KSKFHLISRNSRTNQY-NH2) ?
Ans: 4.23

This collection of values is drawn from paper PMC8294059.
